Biological target: IDO1 (Homo sapiens, UniProt P14902)
Sequence (P14902 whole entry): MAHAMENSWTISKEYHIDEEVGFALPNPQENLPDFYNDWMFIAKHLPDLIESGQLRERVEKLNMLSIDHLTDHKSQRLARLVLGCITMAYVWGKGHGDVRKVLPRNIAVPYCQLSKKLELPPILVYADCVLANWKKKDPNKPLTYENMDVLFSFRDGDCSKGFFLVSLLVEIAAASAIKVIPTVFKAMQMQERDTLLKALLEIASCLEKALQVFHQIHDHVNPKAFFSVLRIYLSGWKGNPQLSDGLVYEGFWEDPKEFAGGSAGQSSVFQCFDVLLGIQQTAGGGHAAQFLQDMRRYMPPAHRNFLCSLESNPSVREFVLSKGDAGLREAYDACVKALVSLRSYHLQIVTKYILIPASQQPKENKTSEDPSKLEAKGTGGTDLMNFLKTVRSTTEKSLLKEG
Assay: IDO1 enzymatic assay
Assay type: biochemical
Set-up: His tag (N); made in house; host or cells: E. coli
Conditions: read-out: Enzyme IC50 IDO1
true if IC50 is below 40 nM. false if not; exact matches included in false.

q: Does the reported IC50 of OC(c1c(C2CC2)ccn2cncc12)C1CCC(c2cccc(F)c2)CC1 (racemic) stay below 40 nM?
a: false

q: Does the reported IC50 of OC(c1c(C2CC2)ccn2cncc12)C1CCN(c2ccccc2)CC1 (stereo not shown) [Example C136] stay below 40 nM?
a: false

q: Does the reported IC50 of O[C@@H](c1c(C2CC2)ccc2cncn12)[C@H]1CC[C@H](c2ccc3ccccc3c2)CC1 (single isomer, unassigned) [Example D136b] stay below 40 nM?
a: false

q: Does the reported IC50 of O[C@@H](c1c(C2CC2)ccc2cncn12)[C@H]1CC[C@H](c2cccc(F)c2)CC1 (single isomer, unassigned) [Example D156b] stay below 40 nM?
a: false

q: Does the reported IC50 of Cn1cc(-c2ccc(N3CCC(C(O)c4c(C5CC5)ccc5cncn45)CC3)cc2)cn1 (stereo not shown) stay below 40 nM?
a: true
